- PROTOCOL TEXT: Pharmacokinetics in CD-1 mice (plasma concentrations, PK parameters)
- Assay type: in vivo
- MEASUREMENT CONDITIONS: CD-1, mouse, plasma, iv, 2 mg/kg, mouse (CD1) iv 2 mg/kg; Mean; read-out: C0
Please provide measured C0 for the entries that follow.
Please reply with the bare figure in ng/mL and do not write the unit itself.

# lookup: C0 of NC(=O)c1nn(-c2ccc(C(=O)NCCCCCNCCNc3cccc4c3C(=O)N(C3CCC(=O)NC3=O)C4=O)cc2)cc1NC(=O)c1coc(-c2ccnc(NCC(F)(F)F)c2)n1 (centres unmarked)
10200

Subsequent entry: O=C1CCC(N2C(=O)c3cccc(NCCOCCOCCNCc4ccc(-n5cc(NC(=O)c6coc(-c7ccnc(NCC8CC8)c7)n6)c(C(F)F)n5)cc4)c3C2=O)C(=O)N1 (centres unmarked)
726

###

- PROTOCOL TEXT: Pharmacokinetics in CD-1 mice (plasma concentrations, PK parameters)
- Assay type: in vivo
- MEASUREMENT CONDITIONS: CD-1, mouse, plasma, iv, 2 mg/kg, mouse (CD1) iv 2 mg/kg; 0.5 h; individual Mouse 1-3; read-out: Concentration
ENDPOINT: concentration at 0.5 h (ng/mL)
Please reply with the bare figure in ng/mL and do not write the unit itself.

# lookup: concentration at 0.5 h of O=C1CCC(N2C(=O)c3cccc(NCCOCCOCCNCc4ccc(-n5cc(NC(=O)c6coc(-c7ccnc(NCC8CC8)c7)n6)c(C(F)F)n5)cc4)c3C2=O)C(=O)N1 (centres unmarked)
306

Subsequent entry: NC(=O)c1nn(-c2ccc(C(=O)NCCCCCNCCNc3cccc4c3C(=O)N(C3CCC(=O)NC3=O)C4=O)cc2)cc1NC(=O)c1coc(-c2ccnc(NCC(F)(F)F)c2)n1 (centres unmarked)
130

###

- PROTOCOL TEXT: Pharmacokinetics in CD-1 mice (plasma concentrations, PK parameters)
- Assay type: in vivo
- MEASUREMENT CONDITIONS: CD-1, mouse, plasma, sc, 30 mg/kg, mouse (CD1) sc 30 mg/kg; 0.5 h; individual Mouse 7-9; read-out: Concentration
ENDPOINT: concentration at 0.5 h (ng/mL)
Please reply with the bare figure in ng/mL and do not write the unit itself.

# lookup: concentration at 0.5 h of O=C1CCC(N2C(=O)c3cccc(NCCOCCOCCNCc4ccc(-n5cc(NC(=O)c6coc(-c7ccnc(NCC8CC8)c7)n6)c(C(F)F)n5)cc4)c3C2=O)C(=O)N1 (centres unmarked)
88.8

Subsequent entry: NC(=O)c1nn(-c2ccc(C(=O)NCCCCCNCCNc3cccc4c3C(=O)N(C3CCC(=O)NC3=O)C4=O)cc2)cc1NC(=O)c1coc(-c2ccnc(NCC(F)(F)F)c2)n1 (centres unmarked)
71.9

###

- TEST TARGET: UniProt Q9NWZ3
- Sequence (Q9NWZ3 whole entry): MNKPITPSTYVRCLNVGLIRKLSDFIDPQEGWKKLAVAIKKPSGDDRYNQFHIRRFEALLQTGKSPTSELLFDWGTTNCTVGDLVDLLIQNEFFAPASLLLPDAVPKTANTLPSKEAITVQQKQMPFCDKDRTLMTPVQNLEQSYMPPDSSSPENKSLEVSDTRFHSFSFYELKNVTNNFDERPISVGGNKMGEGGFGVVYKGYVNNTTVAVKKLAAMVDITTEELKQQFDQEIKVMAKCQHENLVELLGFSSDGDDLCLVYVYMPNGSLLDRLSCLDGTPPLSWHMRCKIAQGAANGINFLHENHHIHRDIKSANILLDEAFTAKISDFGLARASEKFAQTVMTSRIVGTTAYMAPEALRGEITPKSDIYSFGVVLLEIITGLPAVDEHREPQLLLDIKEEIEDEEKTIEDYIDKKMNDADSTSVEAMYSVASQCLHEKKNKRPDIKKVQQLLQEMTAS
- PROTOCOL TEXT: OCI-LY-10 degradation assay (western blot, % IRAK4 degraded after 4 hours)
- Type: cell-based
- Design: endogenous in cells; host or cells: OCI-LY10
- MEASUREMENT CONDITIONS: OCI-LY10 cells, 4 hours, 0.01 uM compound
ENDPOINT: OCI-LY10 % IRAK4 Degradation (0.01 uM)

# example entries with known answers
COMPOUND: O=C1CCC(N2C(=O)c3ccc(N4CCN(CCOCCOCCOCCNC(=O)c5ccc(-n6cc(NC(=O)c7coc(-c8ccnc(NCC9CC9)c8)n7)c(C(F)F)n6)cc5)CC4)cc3C2=O)C(=O)N1 (stereo not drawn)
ENDPOINT: OCI-LY10 % IRAK4 Degradation (0.01 uM)
MEAS VALUE: C (<20% degradation)
--
COMPOUND: NC(=O)c1nn(-c2ccc(CNCCOCCCc3cccc4c3CN(C3CCC(=O)NC3=O)C4=O)cc2)cc1NC(=O)c1coc(-c2ccnc(NCC(F)(F)F)c2)n1 (stereo not drawn)
ENDPOINT: OCI-LY10 % IRAK4 Degradation (0.01 uM)
MEAS VALUE: C (<20% degradation)
--
COMPOUND: O=C1CCC(N2C(=O)c3cccc(NCCOCCOCCOCCOCCNC(=O)c4ccc(-n5cc(NC(=O)c6coc(-c7ccnc(NCC8CC8)c7)n6)c(C(F)F)n5)cc4)c3C2=O)C(=O)N1 (stereo not drawn)
ENDPOINT: OCI-LY10 % IRAK4 Degradation (0.01 uM)
MEAS VALUE: B (>20-50% degradation)
--
COMPOUND: CN(CCCCCCc1cccc2c1C(=O)N(C1CCC(=O)NC1=O)C2=O)Cc1ccc(-n2cc(NC(=O)c3coc(-c4ccnc(NCC5CC5)c4)n3)c(C(N)=O)n2)cc1 (stereo not drawn)
ENDPOINT: OCI-LY10 % IRAK4 Degradation (0.01 uM)
MEAS VALUE: C (<20% degradation)

Then there is this compound:
UniProt Q9NWZ3 / OCI-LY10 % IRAK4 Degradation (0.01 uM) / O=C1CCC(N2C(=O)c3ccc(N4CCN(CCOCCNC(=O)c5ccc(-n6cc(NC(=O)c7coc(-c8ccnc(NCC9CC9)c8)n7)c(C(F)F)n6)cc5)CC4)cc3C2=O)C(=O)N1 (stereo not drawn) : value?
C (<20% degradation)
